Target: Solute carrier family 2, facilitated glucose transporter member 1 (Homo sapiens) (UniProt P11166)
Sequence (P11166 whole entry): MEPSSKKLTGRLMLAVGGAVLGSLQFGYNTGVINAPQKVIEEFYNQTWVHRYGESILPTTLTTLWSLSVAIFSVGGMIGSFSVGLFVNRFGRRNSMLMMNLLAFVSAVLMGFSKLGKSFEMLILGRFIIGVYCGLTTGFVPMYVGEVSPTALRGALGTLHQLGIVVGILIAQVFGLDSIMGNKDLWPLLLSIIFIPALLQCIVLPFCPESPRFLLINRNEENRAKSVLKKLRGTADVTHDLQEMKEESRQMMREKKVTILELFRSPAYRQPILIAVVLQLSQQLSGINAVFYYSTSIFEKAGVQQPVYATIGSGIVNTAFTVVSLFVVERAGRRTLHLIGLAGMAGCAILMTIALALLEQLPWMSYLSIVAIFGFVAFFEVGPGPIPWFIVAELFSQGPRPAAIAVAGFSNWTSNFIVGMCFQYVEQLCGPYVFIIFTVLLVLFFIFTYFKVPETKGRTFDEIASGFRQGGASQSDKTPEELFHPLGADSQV
Test: ST_JUDE_LEISH: Cytotoxicity at 2uM final concentration against transgenic Leishmania Mexicana promastigotes LmGLUT1 that are glucose transport deficient and complemented with the human glucose transporter GLUT1. Activity is measured by DNA content using SYBR green in vitro
Format: functional
Exercise: for every item that follows, state its recorded inhibition.
The figure you give is taken to be in %; do not add the unit.

Lookup: Request the reported inhibition associated with Cc1cc(N(C)C)nc(Nc2ccc(NC(=O)COc3ccccc3)cc2)n1
Found: 2.72

Lookup: Also O=c1c2sc(-c3ccc(Cl)cc3)cc2ncn1Cc1ccc(OCCN2CCCC2)c2ccccc12 ?
Found: 4.34

Lookup: Also CCC(=O)c1c(C)n(-c2ncnc3c2nc(C)n3-c2ccc(C)cc2C)c2ccccc12 ?
Found: 4.6

Lookup: Also N=C(NCCc1c[nH]c2ccccc12)NCc1ccccc1Cl ?
Found: -1.93

Lookup: Also OC(CNC1CCCCC1)Cn1c2ccccc2c2ccccc21 (stereo unspecified) ?
Found: 9.36

Lookup: Also Oc1cccc(CNCCCN(Cc2ccccc2)c2ccccc2)c1 ?
Found: 1.74

Lookup: Also CC(Oc1ccc(Cl)cc1)C(=O)Nc1cc(C(F)(F)F)ccc1-n1cncn1 (stereo unspecified) ?
Found: 2.69

Lookup: Also CCOC(=O)c1ccc(-c2cnc(N)c(-c3nc4cccc(C)c4[nH]3)c2)cc1 ?
Found: 6.18

Lookup: Also O=C(/C=C/c1ccc(Cl)cc1)NCCCCCN1CCC(C(=O)Nc2cccc(Cl)c2)CC1 ?
Found: 2.16

Lookup: Also CCc1cccc(-n2c(=O)c3cccnc3n2CC(=O)NC2CCCC2)c1 ?
Found: 3.43

Lookup: Also O=C(NCC1CCN(Cc2cccc(C(F)(F)F)c2)C1)c1cc(-c2cccc(C(F)(F)F)c2)cs1 (stereo unspecified) ?
Found: 3.9

Lookup: Also CCOc1c(CNCCCNc2cc(=O)c3ccccc3[nH]2)cc(I)cc1C(C)(C)C ?
Found: -0.21

Lookup: Also CCCCC(=O)N(CCOC)Cc1ccc(-c2ccc(CNCCC)cn2)cc1 ?
Found: 7.95

Lookup: Also CN1CCC(C(=O)Nc2cccc(-c3cccc(-c4nc5cc(F)ccc5[nH]4)c3)c2)CC1 ?
Found: 4.7

Lookup: Also COc1cc(NC(=O)Nc2ccc([N+](=O)[O-])cc2OC)c(OC)cc1Cl ?
Found: 16.6

Lookup: Also Cc1cccc2nc(-c3ccc(-c4cccc(NC(=O)Nc5ccc(Cl)c(Cl)c5)c4)s3)[nH]c12 ?
Found: 0.85

Lookup: Also CC12CCC(=O)N1C(C(=O)Nc1cccc(C(=O)Nc3cccc(C(F)(F)F)c3)c1)CS2 (stereo unspecified) ?
Found: 5.52

Lookup: Also Brc1ccccc1CNc1ccnc(NCCn2ccnc2)n1 ?
Found: -0.91

Lookup: Also Cc1ccc(NC(=O)c2cc([N+](=O)[O-])ccc2NCc2cccnc2)cc1Cl ?
Found: 1.5

Lookup: Also COc1cc2nc(N3CCC(c4ccccc4)CC3)nc(NCc3ccc(=O)[nH]c3)c2cc1OC ?
Found: 1.44

Lookup: Also CCN(CCCN1CCCCC1)c1nc(C)cc(Nc2ccc(Cl)cc2)n1 ?
Found: 0.5

Lookup: Also FC(F)(F)c1ccc2[nH]c(-c3ccc(-c4ccc(CNCC5CCCO5)cc4)s3)nc2c1 (stereo unspecified) ?
Found: -1.55

Lookup: Also COc1cc(-c2cc(-c3ccc(S(C)(=O)=O)cc3)cnc2N)ccc1O ?
Found: 6.13

Lookup: Also CCOc1ccc(C(=O)N2CCOC(CCN3CCC(c4ccccc4)CC3)(c3ccc(Cl)c(Cl)c3)C2)cc1 (stereo unspecified) ?
Found: 3.91

Lookup: Also O=C(/C=C/c1ccc(Cl)c(Cl)c1)NCCCCCCN1CCN(C(=O)Nc2cc(Cl)nc(Cl)c2)CC1 ?
Found: 2.96

Lookup: Also O=C(COc1ccccc1Cl)N1CCc2cc3nccc(N4CCN5CCC[C@H]5C4)c3cc21 ?
Found: 6.5

Lookup: Also CC(CN1CCN(C)CC1)C(=O)Nc1ccc(-c2cccc(-c3nc4cc(F)ccc4[nH]3)c2)cc1 (stereo unspecified) ?
Found: 2.46

Lookup: Also O=C(Nc1ccccc1Cl)c1cc2ccccc2cc1O ?
Found: -2.32

Lookup: Also Cc1cc(SC(C)(C)C)cc2c(Cl)c(C(N)=O)cnc12 ?
Found: 89

Lookup: Also CCCN(CC1CC1)c1ncc(-c2cccc(CNCCC3CCCN3C)c2)cn1 (stereo unspecified) ?
Found: 98.4

Lookup: Also CON=C1CCC(Cn2ccnc2)(c2ccc(Cl)cc2Cl)CC1 (stereo unspecified) ?
Found: 7.4

Lookup: Also O=C1c2cc(I)ccc2SC1c1ccccc1 (stereo unspecified) ?
Found: 1.22

Lookup: Also O=C(NCCN1CCCCC1)c1ccc(CNC(=O)c2ccc(O)c(-c3cccc(C(F)(F)F)c3)c2)cc1 ?
Found: 4.42

Lookup: Also CCCC(=O)c1cnc2c(OCCCc3c[nH]cn3)cccc2c1Nc1c(C)cccc1C ?
Found: 2.21

Lookup: Also Cc1cc2nc(N=C3NC4(c5ccccn5)NC(=Nc5nc6cc(C)c(C)cc6[nH]5)NC4(c4ccccn4)N3)[nH]c2cc1C (stereo unspecified) ?
Found: 2.01

Lookup: Also COCCNCc1ncsc1-c1ccc2c(Nc3cc(O)c(Cl)cc3F)ccnc2c1 ?
Found: 3.19

Lookup: Also COc1ccccc1-c1ccc2nnc(SCC(=O)Nc3ccc4c(c3)OCCO4)n2n1 ?
Found: 4.56

Lookup: Also FC(F)(F)c1ccc2[nH]c(-c3ccc(-c4cccc(CNCCN5CCNCC5)c4)cc3)nc2c1 ?
Found: 0.53

Lookup: Also Cc1cc(N[C@@H](Cc2ccccc2)C(=O)NCCc2ccccc2)nc(NCCc2ccccc2)n1 ?
Found: 4.48

Lookup: Also Cc1ccc2[nH]c(-c3ccccc3)cc(=NN=Cc3cccnc3)c2c1 ?
Found: 1.16

Lookup: Also O=C1OC(c2ccccc2)(c2ccccc2)CN1CC1CCN(Cc2ccc(O)c(Cl)c2)CC1 ?
Found: 70

====

Molecular target: Solute carrier family 2, facilitated glucose transporter member 1 (Homo sapiens) (UniProt P11166)
Test: ST_JUDE_LEISH: Cytotoxicity at 2uM final concentration against transgenic Leishmania Mexicana promastigotes LmGLUT1 that are glucose transport deficient and complemented with the human glucose transporter GLUT1. Activity is measured by DNA content using SYBR green in vitro
Assay type: functional
Exercise: for every item that follows, state its recorded inhibition.
The figure you give is taken to be in %; do not add the unit.

Lookup: Request the reported inhibition associated with COc1ccc(CNCc2cccc(-c3csc(-c4nc5ccccc5[nH]4)c3)c2)cc1
Found: -1.65

Lookup: Also COc1ccccc1CCC(C)(C)NC(=O)CC(CCc1ccccc1)Nc1ccc(C#N)c2ccccc12 (stereo not given) ?
Found: -0.97

Lookup: Also CCN(CC)/C(=N/C(=N)NCc1ccc(Cl)cc1)NCCCCCCN/C(=N\C(=N)NCc1ccc(Cl)cc1)N(CC)CC ?
Found: 9.05

Lookup: Also COc1ccc(-c2cnc(N)nc2N)cc1Cl ?
Found: 1.93

Lookup: Also O=C(NNC(=O)c1ccc(CN2CCC(c3nc4ccccc4[nH]3)CC2)cc1)Nc1ccc(Oc2ccccc2)cc1 ?
Found: 2.4

Lookup: Also CCCc1cc(NCC)nc(Nc2ccc(C)cc2)n1 ?
Found: 23.6

Lookup: Also O=C(CCc1c[nH]cn1)Nc1ccc(-c2ccc(-c3nc4ccccc4[nH]3)cc2)cc1 ?
Found: 19.3

Lookup: Also CCOC(=O)c1cc(Cl)ccc1OCCCON1C(=N)N=C(N)NC1(C)C ?
Found: 1.75

Lookup: Also CC(=O)Nc1ccc(CN2CCN(C(c3ccc(F)cc3)c3ccc(F)cc3)CC2)cc1 ?
Found: 5.18

Lookup: Also Cc1ccnc2nc(C(=O)Nc3cc(Cl)ccc3N3CCOCC3)nn12 ?
Found: 5.13

====

Target: Glucose transporter (Leishmania mexicana)
Assay: ST_JUDE_LEISH: Cytotoxicity at 2uM final concentration against transgenic Leishmania Mexicana promastigotes LmGT2 that are glucose transport deficient and complemented with the L. Mexicana glucose transporter 2. Activity is measured by DNA content using SYBR green in vitro
Type: functional
quantityMeasured: inhibition (%)
The figure you give is taken to be in %; do not add the unit.

Lookup: Request the reported inhibition associated with COc1ccccc1-c1csc(C(=O)NC2CCCCN(Cc3ccc(C(C)(C)C)cc3)C2)c1 (stereo not given)
Found: 2.61

Lookup: Also C=C[C@]1(C)C[C@@H](OC(=O)NC(=O)C2CCN(C(=O)CSc3ccccc3)CC2)[C@]2(C)[C@H](C)CC[C@]3(CCC(=O)[C@H]32)[C@@H](C)[C@@H]1O ?
Found: 5.56

Lookup: Also NCCCNc1ccnc2cc(Cl)ccc12 ?
Found: 10.7

Lookup: Also COc1ccc(OCC(O)CN(Cc2ccccc2OC)C(=O)Nc2ccc(Br)cc2)cc1 (stereo not given) ?
Found: 1.1

Lookup: Also COc1cc2nc(N3CCC(c4ccccc4)CC3)nc(NCc3ccc(=O)[nH]c3)c2cc1OC ?
Found: 1.6
